Value source: patent US11505543B2

# Lookup of reported EC50 keyed by entry
Test system: recombinant NL4-3 virus (nef section replaced with Renilla luciferase gene) in MT-2 cells
assay info: HIV cell culture assay (antiviral activity, luciferase readout)
Type: cell-based
test settings: Renilla, NL43, MT-2 cells infected for 4-5 days with recombinant NL4-3 Renilla luciferase virus, serial dilutions of compound
Report only the number, with the unit nM understood.

{"compound": "O=C(Cn1nc(C(F)F)cc1C(F)F)N[C@@H](Cc1cc(F)cc(F)c1)c1nc2cc(-c3ccccc3F)ccc2c(=O)n1-c1ccc(Cl)c2c(NS(=O)(=O)C3CC3)nn(CC(F)F)c12 (atropisomer, axis not shown)", "target system": "recombinant NL4-3 virus (nef section replaced with Renilla luciferase gene) in MT-2 cells", "EC50 / nM": 9.5}
{"compound": "Cc1cccc(-c2ccc3c(=O)n(-c4ccc(Cl)c5c(NS(C)(=O)=O)nn(CC(F)F)c45)c([C@H](Cc4cc(F)cc(F)c4)NC(=O)Cn4nc(C(F)F)c5c4C(F)(F)[C@@H]4C[C@H]54)nc3c2)n1", "target system": "recombinant NL4-3 virus (nef section replaced with Renilla luciferase gene) in MT-2 cells", "EC50 / nM": 0.08}

Lookup: Read off the recorded EC50 for Cn1nc(NS(C)(=O)=O)c2c(Cl)ccc(-n3c([C@H](Cc4cc(F)cc(F)c4)NC(=O)Cn4nc(C(F)F)c5c4C(F)(F)[C@@H]4C[C@H]54)nc4cc(-c5ccc(Cl)cc5)ccc4c3=O)c21 (atropisomer, axis not shown; (aR))
Found: 3.3

Lookup: Annotate the compound Cn1nc(NS(C)(=O)=O)c2c(Cl)ccc(-n3c([C@H](Cc4cc(F)cc(F)c4)NC(=O)Cn4nc(C(F)F)c5c4C(F)(F)[C@@H]4C[C@H]54)nc4cc(-c5ccc(Cl)cc5F)ccc4c3=O)c21 with its measured EC50.
Found: 1.8

Lookup: Given the compound O=C(Cn1nc(C(F)F)cc1C(F)F)N[C@@H](Cc1cc(F)cc(F)c1)c1nc2cc(-c3ncccn3)ccc2c(=O)n1-c1ccc(Cl)c2c(NS(=O)(=O)C3CC3)nn(CC(F)F)c12 , write its reported EC50.
Found: 1.3

Lookup: // fetch EC50 given entry CCS(=O)(=O)c1cccc(-c2ccc3c(=O)n(-c4ccc(Cl)c5c(NS(C)(=O)=O)nn(C)c45)c([C@H](Cc4cc(F)cc(F)c4)NC(=O)Cn4nc(C(F)F)c5c4C(F)(F)[C@@H]4C[C@H]54)nc3c2)c1 (atropisomer, axis not shown; (aR))
Found: 0.11

Lookup: Indicate its recorded EC50; the compound in question is Cn1nc(NS(C)(=O)=O)c2c(Cl)ccc(-n3c([C@H](Cc4cc(F)cc(F)c4)NC(=O)Cn4nc(C(F)F)c5c4C(F)(F)[C@@H]4C[C@H]54)nc4cc(-c5ccccc5Oc5ccccc5)ccc4c3=O)c21 (atropisomer, axis not shown; (aR))
Found: 10

Lookup: Report measured EC50; entry is O=C(Cn1ccc(C2CC2)n1)N[C@@H](Cc1cc(F)cc(F)c1)c1nc2cc(-c3ccccc3-c3ccccc3)ccc2c(=O)n1-c1ccc(S(=O)(=O)N2CCOCC2)cc1
Found: 69

Lookup: Indicate its recorded EC50; the compound in question is Cn1nc(NS(C)(=O)=O)c2c(Cl)ccc(-n3c([C@H](Cc4cc(F)cc(F)c4)NC(=O)Cn4nc(C(F)F)cc4C(F)F)nc4cc(-c5ccccc5F)ccc4c3=O)c21
Found: 4.8

Lookup: Read off the recorded EC50 for Cn1nc(NS(C)(=O)=O)c2c(Cl)ccc(-n3c([C@H](Cc4cc(F)cc(F)c4)NC(=O)Cn4nc(C(F)F)c5c4C(F)(F)[C@@H]4C[C@H]54)nc4cc(-c5ccc(F)cc5CO)ccc4c3=O)c21 (atropisomer, axis not shown; (aR))
Found: 0.34

Lookup: Output measured EC50 for this item: Cn1nc(NS(C)(=O)=O)c2c(Cl)ccc(-n3c([C@H](Cc4cc(F)cc(F)c4)NC(=O)Cn4nc(C(F)F)c5c4C(F)(F)[C@@H]4C[C@H]54)nc4cc(-c5cccc(C(=O)O)c5)ccc4c3=O)c21 (atropisomer, axis not shown; (aR))
Found: 9.7

Lookup: Specify EC50 for Cn1nc(NS(C)(=O)=O)c2c(Cl)ccc(-n3c([C@H](Cc4cc(F)cc(F)c4)NC(=O)Cn4nc(C(F)F)c5c4C(F)(F)[C@@H]4C[C@H]54)nc4cc(-c5ccc(Cl)c(C(=O)O)c5)ccc4c3=O)c21 (atropisomer, axis not shown; (aR)) and stop.
Found: 17

Lookup: Indicate its recorded EC50; the compound in question is CS(=O)(=O)Nc1nn(CC(F)(F)F)c2c(-n3c([C@H](Cc4cc(F)cc(F)c4)NC(=O)Cn4nc(C(F)F)c5c4C(F)(F)[C@@H]4C[C@H]54)nc4cc(-c5ccccc5S(C)(=O)=O)ccc4c3=O)ccc(Cl)c12
Found: 0.08

Lookup: Answer with the recorded EC50 for the compound listed here: O=C(Cn1ccc(C2CC2)n1)N[C@@H](Cc1cc(F)cc(F)c1)c1nc2cc(-c3c(Cl)cccc3Cl)ccc2c(=O)n1-c1ccc(S(=O)(=O)N2CCOCC2)cc1
Found: 15

Lookup: Input Cc1cc(C)nc(-c2ccc3c(=O)n(-c4ccc(Cl)c5c(NS(C)(=O)=O)nn(CC(F)F)c45)c([C@H](Cc4cc(F)cc(F)c4)NC(=O)Cn4nc(C(F)F)c5c4C(F)(F)[C@@H]4C[C@H]54)nc3c2)n1 (atropisomer, axis not shown; (aR)) , output reported EC50.
Found: 0.069

Lookup: Specify EC50 for Cc1cccc(-c2ccc3c(=O)n(-c4ccc(Cl)c5c(NS(=O)(=O)C6CC6)nn(CC(F)F)c45)c([C@H](Cc4cc(F)cc(F)c4)NC(=O)Cn4nc(C(F)F)c5c4C(F)(F)[C@@H]4C[C@H]54)nc3c2)n1 and stop.
Found: 0.14

----------
Measured EC50 of individual entries
Test system: recombinant NL4-3 virus (nef section replaced with Renilla luciferase gene) in MT-2 cells
assay info: HIV cell culture assay (antiviral activity, luciferase readout)
Format: cell-based
test settings: Renilla, NL43, MT-2 cells infected for 4-5 days with recombinant NL4-3 Renilla luciferase virus, serial dilutions of compound
Please reply with the bare figure in nM and do not write the unit itself.

Lookup: Answer with the recorded EC50 of Cn1nc(NS(C)(=O)=O)c2c(Cl)ccc(-n3c([C@H](Cc4cc(F)cc(F)c4)NC(=O)Cn4nc(C(F)F)c5c4C(F)(F)[C@@H]4C[C@H]54)nc4cc(-c5ccccn5)ccc4c3=O)c21 (atropisomer, axis not shown; (aR)) only.
Found: 0.09

Lookup: Please report EC50 for the following molecule: Cn1nc(NS(C)(=O)=O)c2c(Cl)ccc(-n3c(C(Cc4cc(F)cc(F)c4)NC(=O)Cn4nc(C(F)F)c5c4C(F)(F)[C@@H]4C[C@H]54)nc4cc(-c5ccccc5F)ccc4c3=O)c21 (single isomer, unassigned)
Found: 209

Lookup: Kindly indicate its recorded EC50. Item: Cn1nc(NS(C)(=O)=O)c2c(Cl)ccc(-n3c([C@H](Cc4cc(F)cc(F)c4)NC(=O)Cn4nc(C(F)F)c5c4C(F)(F)[C@@H]4C[C@H]54)nc4cc(-c5ccc6c(c5)CCCO6)ccc4c3=O)c21 (atropisomer, axis not shown; (aR))
Found: 3.2

Lookup: Return value of EC50 for input CC(C)S(=O)(=O)c1cccc(-c2ccc3c(=O)n(-c4ccc(Cl)c5c(NS(C)(=O)=O)nn(C)c45)c([C@H](Cc4cc(F)cc(F)c4)NC(=O)Cn4nc(C(F)F)c5c4C(F)(F)[C@@H]4C[C@H]54)nc3c2)c1 (atropisomer, axis not shown; (aR)) , no commentary.
Found: 0.15

----------
System: recombinant NL4-3 virus (nef section replaced with Renilla luciferase gene) in MT-2 cells
assay info: HIV cell culture assay (antiviral activity, luciferase readout)
Assay type: cell-based
test settings: Renilla, NL43, MT-2 cells infected for 4-5 days with recombinant NL4-3 Renilla luciferase virus, serial dilutions of compound
# pEC50 annotations
A value of pEC50 is the negative decimal logarithm of a concentration given in moles per litre.

Would you please look over these solved cases?
{"molecule": "O=C(Cn1ccc(C2CC2)n1)N[C@@H](Cc1cc(F)cc(F)c1)c1nc2cc(-c3cccc(F)c3F)ccc2c(=O)n1-c1ccc(S(=O)(=O)N2CCOCC2)cc1", "pEC50": 7.80}
{"molecule": "Cn1nc(NS(C)(=O)=O)c2c(Cl)ccc(-n3c([C@H](Cc4cc(F)cc(F)c4)NC(=O)Cn4nc(C(F)F)c5c4C(F)(F)[C@@H]4C[C@H]54)nc4cc(-c5c(F)cc(F)cc5F)ccc4c3=O)c21", "pEC50": 9.60}
{"molecule": "Cn1nc(NS(C)(=O)=O)c2c(Cl)ccc(-n3c([C@H](Cc4cc(F)cc(F)c4)NC(=O)Cn4nc(C(F)F)c5c4C(F)(F)[C@@H]4C[C@H]54)nc4cc(-c5ccc(F)c(C#N)c5)ccc4c3=O)c21 (atropisomer, axis not shown; (aR))", "pEC50": 9.40}

In the following, a different molecule is considered.
Lookup: Quote recombinant NL4-3 virus (nef section replaced with Renilla luciferase gene) in MT-2 cells pEC50 for entry O=C(Cn1nc(C(F)F)c2c1C(F)(F)[C@@H]1C[C@H]21)N[C@@H](Cc1cc(F)cc(F)c1)c1nc2cc(-c3ccc(Cl)cc3Cl)ccc2c(=O)n1-c1ccc(S(=O)(=O)N2CCOCC2)cc1 .
Found: 8.10
